- Test system: MCF7
- Method summary: Cytotoxicity against human MCF7 cells assessed as viable cells after 24 hrs by MTT assay
- Assay type: functional, cell-based
- Assay conditions: MCF7, 24 h
pIC50: −log10 of the molar value.
Property label: pIC50

Below are worked cases with known answers.
COc1c(Br)cc(C/C(=N\O)C(=O)NCCCNCCCCNCCCNC(=O)/C(Cc2cc(Br)c(OC)c(Br)c2)=N/O)cc1Br ... < 4.00
CO/N=C(\Cc1cc(Br)c(OC)c(Br)c1)C(=O)NCCCNCCCCNCCCNC(=O)/C(Cc1cc(Br)c(OC)c(Br)c1)=N/OC ... 4.61
COc1c(Br)cc(C/C(=N\OCc2ccccc2)C(=O)NCCCCCNC(=O)/C(Cc2cc(Br)c(OC)c(Br)c2)=N/OCc2ccccc2)cc1Br ... < 4.00
CO/N=C(\Cc1cc(Br)c(OC)c(Br)c1)C(=O)NCCCCCNC(=O)/C(Cc1cc(Br)c(OC)c(Br)c1)=N/OC ... < 4.00
COc1c(Br)cc(C/C(=N\OCc2ccccc2)C(=O)NCCCNCCCCNCCCNC(=O)/C(Cc2cc(Br)c(OC)c(Br)c2)=N/OCc2ccccc2)cc1Br ... 5.35

For every item in the list below, what is its measured pIC50?
1. CO/N=C(\Cc1cc(Br)c(OC)c(Br)c1)C(=O)NCCNCCNC(=O)/C(Cc1cc(Br)c(OC)c(Br)c1)=N/OC
2. COc1c(Br)cc(C/C(=N\O)C(=O)NCCCCCNC(=O)/C(Cc2cc(Br)c(OC)c(Br)c2)=N/O)cc1Br
3. COc1c(Br)cc(C/C(=N\O)C(=O)NCCNCCNC(=O)/C(Cc2cc(Br)c(OC)c(Br)c2)=N/O)cc1Br
4. COc1c(Br)cc(C/C(=N\OCc2ccccc2)C(=O)NCCNCCNC(=O)/C(Cc2cc(Br)c(OC)c(Br)c2)=N/OCc2ccccc2)cc1Br

Completion:
4.57
< 4.00
< 4.00
< 4.00

---

Can you tell me IC50 for the items I'm about to list?
- Method summary: Cytotoxicity against human DU145 cells assessed as viable cells after 24 hrs by MTT assay
- Assay type: functional, cell-based
- Assay conditions: DU-145, 24 h

Return reported IC50 values for all items listed beneath this line.
1. COc1c(Br)cc(C/C(=N\O)C(=O)NCCCCCNC(=O)/C(Cc2cc(Br)c(OC)c(Br)c2)=N/O)cc1Br
2. COc1c(Br)cc(C/C(=N\OCc2ccccc2)C(=O)NCCNCCNC(=O)/C(Cc2cc(Br)c(OC)c(Br)c2)=N/OCc2ccccc2)cc1Br
3. COc1c(Br)cc(C/C(=N\OCc2ccccc2)C(=O)NCCCCCNC(=O)/C(Cc2cc(Br)c(OC)c(Br)c2)=N/OCc2ccccc2)cc1Br

Completion:
1. > 100 µM
2. > 100 µM
3. > 100 µM
